This collection of values is drawn from ChEMBL document CHEMBL1147150.

target: Histone deacetylase 1 (Homo sapiens)
Sequence (Q13547 whole entry): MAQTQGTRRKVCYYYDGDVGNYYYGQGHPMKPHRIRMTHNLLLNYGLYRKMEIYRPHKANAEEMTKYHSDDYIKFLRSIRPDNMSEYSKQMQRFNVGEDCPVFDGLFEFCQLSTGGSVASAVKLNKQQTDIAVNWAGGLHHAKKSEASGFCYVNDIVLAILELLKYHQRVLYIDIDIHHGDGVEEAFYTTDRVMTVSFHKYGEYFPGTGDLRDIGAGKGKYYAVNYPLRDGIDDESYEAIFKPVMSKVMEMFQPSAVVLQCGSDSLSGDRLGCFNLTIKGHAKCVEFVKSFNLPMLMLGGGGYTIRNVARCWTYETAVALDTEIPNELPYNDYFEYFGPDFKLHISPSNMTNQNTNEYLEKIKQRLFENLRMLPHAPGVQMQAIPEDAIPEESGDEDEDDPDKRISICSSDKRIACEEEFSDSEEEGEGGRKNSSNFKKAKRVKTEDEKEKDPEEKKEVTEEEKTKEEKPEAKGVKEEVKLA
METRIC: Ki

SMILES TEXT | RESULT
COC(=O)[C@@H]1Cc2cccc(c2)C[C@H](NC(C)=O)C(=O)N[C@@H](CCCCCC(=O)NO)C(=O)N1 | 4.15 nM

* * *

Molecular target: Histone deacetylase 8 (Homo sapiens, UniProt Q9BY41)
Sequence (Q9BY41 whole entry): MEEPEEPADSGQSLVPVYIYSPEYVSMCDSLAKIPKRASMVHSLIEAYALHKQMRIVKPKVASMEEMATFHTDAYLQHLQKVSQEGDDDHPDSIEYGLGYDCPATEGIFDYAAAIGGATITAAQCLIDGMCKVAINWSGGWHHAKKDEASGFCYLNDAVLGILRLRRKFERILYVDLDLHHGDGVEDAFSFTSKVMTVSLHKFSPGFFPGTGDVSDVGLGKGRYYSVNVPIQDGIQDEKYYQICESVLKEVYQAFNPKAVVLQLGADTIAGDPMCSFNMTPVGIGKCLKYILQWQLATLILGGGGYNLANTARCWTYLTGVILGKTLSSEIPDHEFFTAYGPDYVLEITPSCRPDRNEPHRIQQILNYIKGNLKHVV
METRIC: Ki

SMILES TEXT | RESULT
COC(=O)[C@@H]1Cc2cccc(c2)C[C@H](NC(C)=O)C(=O)N[C@@H](CCCCCC(=O)NO)C(=O)N1 | 5.32 nM
